tested on: SVG p12 normal brain cell line; experiment: MTS cell viability assay, SVG p12; format: cell-based, human; details: Homo sapiens, SVGp12, 24 h
assay-endpoint: pIC50
Lab note: report pIC50 as minus log10 of the concentration in molar units, number only.

# input Indicate its recorded pIC50; the molecule in question is COc1cc(/C=C/C(=O)CC(=O)/C=C/c2ccc(O)c(OC)c2)ccc1O [Curcumin]
# output 5.38

====

tested on: SVG p12 normal brain cell line; test: MTS cell viability assay, SVG p12; assay type: cell-based, human; conditions: Homo sapiens, SVGp12, 24 h, SVG p12, MTS assay, 24 h treatment
assay-endpoint: IC50 (µM)
I only need the number, in µM, no unit after it.

# input Please report the measured IC50 for `O=C(/C=C/c1ccc(O)cc1)CC(=O)/C=C/c1ccc(O)cc1`
# output 30

Hey, just so you know, these numbers are from paper PMC8349541.
